Entries below carry reported pIC50 on Factor D (Homo sapiens (Human)).
Sequence (P00746 26-253): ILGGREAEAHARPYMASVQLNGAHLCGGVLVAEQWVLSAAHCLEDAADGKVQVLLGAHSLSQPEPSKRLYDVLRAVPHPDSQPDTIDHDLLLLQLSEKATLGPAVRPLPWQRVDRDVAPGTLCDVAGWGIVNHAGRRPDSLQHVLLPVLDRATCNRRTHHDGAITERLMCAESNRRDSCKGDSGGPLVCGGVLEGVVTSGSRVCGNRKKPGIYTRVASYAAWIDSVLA
pIC50: −log10 of the molar value.

| compound | assayed-target | pIC50 |
| --- | --- | --- |
| NCc1cccc(-c2cc(NC3CCCC3)c3occ(COc4ccccc4CC(=O)O)c3c2)c1 [Compound 188d] | Factor D (Homo sapiens (Human)) | > 6.00 |
| CC(C)n1nc(COc2ccccc2CCC(=O)O)c2cc(-c3cccc(CN)c3)ccc21 [Compound 308d] | Factor D (Homo sapiens (Human)) | 5.00 to 6.00 |
| Cc1cccc(C)c1-c1cc(-c2cccc(CN)c2)cc2c(COc3ccccc3CC(=O)O)coc12 [Compound 220c] | Factor D (Homo sapiens (Human)) | > 6.00 |
| CC(C)n1nc(COc2ccccc2CC(=O)O)c2cc(-c3ccc(CN)cc3)ccc21 [Compound 311c] | Factor D (Homo sapiens (Human)) | < 5.00 |
| NCc1cccc(-c2cccc3cc(COc4ccccc4CC(=O)O)oc23)c1 [Compound 19e] | Factor D (Homo sapiens (Human)) | > 6.00 |
| Cc1nn(C)cc1-c1cc(-c2cccc(CN)c2)cc2c(COc3ccccc3CC(=O)O)coc12 [Compound 134c] | Factor D (Homo sapiens (Human)) | > 6.00 |
| CNc1cc(-c2cccc(CN)c2)cc2c(COc3cc(OC)ccc3CC(=O)O)coc12 [Compound 280c] | Factor D (Homo sapiens (Human)) | > 6.00 |
| CCCc1oc2ccc(-c3cccc(CN)c3)cc2c1COc1cc(OC)ccc1CC(=O)O [Compound 284e] | Factor D (Homo sapiens (Human)) | > 6.00 |
| NCc1cccc(-c2ccc3occ(COc4cc(C(F)(F)F)ccc4CC(=O)O)c3c2)c1 [Compound 118d] | Factor D (Homo sapiens (Human)) | > 6.00 |
| NCc1cccc(-c2ccc3c(c2)c(COc2ccccc2CC(=O)O)nn3-c2ccncc2)c1 [Compound 265c] | Factor D (Homo sapiens (Human)) | > 6.00 |
| COc1ccc(CC(=O)O)c(OCc2c(-c3ccc(F)cc3)oc3ccc(-c4cccc(CN)c4)cc23)c1 [Compound 168c] | Factor D (Homo sapiens (Human)) | > 6.00 |
| NCc1cccc(-c2cc(CO)cc3cc(COc4ccccc4CC(=O)O)oc23)c1 [Compound 29b] | Factor D (Homo sapiens (Human)) | > 6.00 |
| COc1ccc(CC(=O)O)c(OCc2coc3c(OCC4CC4)cc(-c4cccc(CN)c4)cc23)c1 [Compound 160c] | Factor D (Homo sapiens (Human)) | > 6.00 |
| COc1ccc(CC(=O)O)c(OCc2coc3ccc(-c4cccc(CN)c4)cc23)c1 [Compound 48b] | Factor D (Homo sapiens (Human)) | > 6.00 |
| NCc1cccc(-c2ccc3occ(COc4cc(C(=O)O)ccc4CC(=O)O)c3c2)c1 [Compound 158d] | Factor D (Homo sapiens (Human)) | > 6.00 |
| COc1ccc(CC(=O)O)c(OCc2coc3c2cc(-c2cccc(CN)c2)c2occc23)c1 [Compound 231c] | Factor D (Homo sapiens (Human)) | > 6.00 |
| NCc1cccc(-c2cc(OCc3nccs3)c3occ(COc4ccccc4CC(=O)O)c3c2)c1 [Compound 196f] | Factor D (Homo sapiens (Human)) | > 6.00 |
| NCc1cccc(-c2ccc3oc(F)c(COc4ccccc4CC(=O)O)c3c2)c1 [Compound 204c] | Factor D (Homo sapiens (Human)) | > 6.00 |
| NCc1cccc(-c2cc(CN3CCC3)c3occ(COc4ccccc4CC(=O)O)c3c2)c1 [Compound 207d] | Factor D (Homo sapiens (Human)) | > 6.00 |
| NCc1cccc(-c2cc(OCCC3CCOCC3)c3occ(COc4ccccc4CC(=O)O)c3c2)c1 [Compound 249f] | Factor D (Homo sapiens (Human)) | > 6.00 |
| Cc1ccccc1-c1cc(-c2cccc(CN)c2)cc2c(COc3ccccc3CC(=O)O)coc12 [Compound 223c] | Factor D (Homo sapiens (Human)) | > 6.00 |
| NCc1cccc(-c2cc(C(F)F)c3occ(COc4ccccc4CC(=O)O)c3c2)c1 [Compound 262e] | Factor D (Homo sapiens (Human)) | > 6.00 |
| NCc1cccc(-c2cc(-c3c[nH]c4ccccc34)c3occ(COc4ccccc4CC(=O)O)c3c2)c1 [Compound 136d] | Factor D (Homo sapiens (Human)) | > 6.00 |
| NCc1cccc(-c2ccc3c(COc4ccccc4CC(=O)O)coc3c2)c1F [Compound 95b] | Factor D (Homo sapiens (Human)) | < 5.00 |
| NCc1cccc(-c2cc(OCCN3CCOCC3)c3occ(COc4ccccc4CC(=O)O)c3c2)c1 [Compound 250f] | Factor D (Homo sapiens (Human)) | > 6.00 |
| CC(C)n1nc(COc2cccc(CC(=O)O)c2)c2cc(-c3cccc(CN)c3)ccc21 [Compound 304c] | Factor D (Homo sapiens (Human)) | < 5.00 |
| COc1ccc(CC(=O)O)c(OCc2c(C)oc3ccc(-c4cccc(CN)c4F)cc23)c1 [Compound 201b] | Factor D (Homo sapiens (Human)) | > 6.00 |
| NCc1cccc(-c2cc(-c3cc4ccccc4[nH]3)c3occ(COc4ccccc4CC(=O)O)c3c2)c1 [Compound 137c] | Factor D (Homo sapiens (Human)) | > 6.00 |
| COc1ccc(CC(=O)O)c(OCc2c(C)oc3ccc(-c4cccc(CN)c4)cc23)c1 [Compound 138c] | Factor D (Homo sapiens (Human)) | > 6.00 |
| NCc1cccc(-c2cccc3occ(COc4ccccc4CC(=O)O)c23)c1 [Compound 97h] | Factor D (Homo sapiens (Human)) | < 5.00 |
| CC(C)(C)OC(=O)N(Cc1cc(-c2cccc(CN)c2)cc2c(COc3ccccc3CC(=O)O)coc12)CC(F)(F)F [Compound 177g] | Factor D (Homo sapiens (Human)) | > 6.00 |
| Cc1ccc(CC(=O)O)c(OCc2c(C)oc3ccc(-c4cccc(CN)c4)cc23)c1 [Compound 131c] | Factor D (Homo sapiens (Human)) | > 6.00 |
